Assign relative viability to each entry below.
Test system: NCI-H2023
Assay: relative viability (nuclei count vs DMSO), 5 days (fraction); higher = more cells survive
Settings: first compound 0.006325 µM

Below, each entry is followed by its recorded relative viability result.
MOLECULE | RESULT
CC(=O)O[C@@]12CO[C@@H]1C[C@H](O)[C@@]1(C)C(=O)[C@H](O)C3=C(C)[C@@H](OC(=O)[C@H](O)[C@@H](NC(=O)OC(C)(C)C)c4ccccc4)C[C@@](O)([C@@H](OC(=O)c4ccccc4)[C@H]21)C3(C)C [Docetaxel] + COc1cc2c(Oc3ccc(NC(=O)C4(C(=O)Nc5ccc(F)cc5)CC4)cc3F)ccnc2cc1OCCCN1CCOCC1 [Foretinib] (partner 0.25 µM) | 0.102
CC(=O)O[C@@]12CO[C@@H]1C[C@H](O)[C@@]1(C)C(=O)[C@H](O)C3=C(C)[C@@H](OC(=O)[C@H](O)[C@@H](NC(=O)OC(C)(C)C)c4ccccc4)C[C@@](O)([C@@H](OC(=O)c4ccccc4)[C@H]21)C3(C)C [Docetaxel] + O=C(CCCCCCC(=O)Nc1ccccc1)NO [Vorinostat] (partner 1 µM) | 0.0951
CC(=O)O[C@@]12CO[C@@H]1C[C@H](O)[C@@]1(C)C(=O)[C@H](O)C3=C(C)[C@@H](OC(=O)[C@H](O)[C@@H](NC(=O)OC(C)(C)C)c4ccccc4)C[C@@](O)([C@@H](OC(=O)c4ccccc4)[C@H]21)C3(C)C [Docetaxel] + O=C(c1cc(Cc2n[nH]c(=O)c3ccccc23)ccc1F)N1CCN(C(=O)C2CC2)CC1 [Olaparib] (partner 8 µM) | 0.114
CC(=O)O[C@@]12CO[C@@H]1C[C@H](O)[C@@]1(C)C(=O)[C@H](O)C3=C(C)[C@@H](OC(=O)[C@H](O)[C@@H](NC(=O)OC(C)(C)C)c4ccccc4)C[C@@](O)([C@@H](OC(=O)c4ccccc4)[C@H]21)C3(C)C [Docetaxel] + CC(=O)c1c(C)c2cnc(Nc3ccc(N4CCNCC4)cn3)nc2n(C2CCCC2)c1=O [Palbociclib] (partner 0.5 µM) | 0.0906
CC(=O)O[C@@]12CO[C@@H]1C[C@H](O)[C@@]1(C)C(=O)[C@H](O)C3=C(C)[C@@H](OC(=O)[C@H](O)[C@@H](NC(=O)OC(C)(C)C)c4ccccc4)C[C@@](O)([C@@H](OC(=O)c4ccccc4)[C@H]21)C3(C)C [Docetaxel] + Nc1ncn([C@H]2C[C@H](O)[C@@H](CO)O2)c(=O)n1 [Decitabine] (partner 2 µM) | 0.0989

Now turn to the next molecule.
Lab note: need relative viability for CC(=O)O[C@@]12CO[C@@H]1C[C@H](O)[C@@]1(C)C(=O)[C@H](O)C3=C(C)[C@@H](OC(=O)[C@H](O)[C@@H](NC(=O)OC(C)(C)C)c4ccccc4)C[C@@](O)([C@@H](OC(=O)c4ccccc4)[C@H]21)C3(C)C [Docetaxel] + CCNC(=O)c1noc(-c2cc(C(C)C)c(O)cc2O)c1-c1ccc(CN2CCOCC2)cc1 [Luminespib] (partner 0.01 µM) on NCI-H2023, anyone have it?
0.105
